System: Wolbachia pipientis
Assay: Anti-Wolbachia Cell-Based Screen
Assay type: functional
Design: scale not given: in the data most compounds retested in dose-response had high values
Conditions: 5 µM
In all, about 48,000 compounds went through this assay and about 13,000 (27%) showed an effect of 50% or more. The list shows a part of the results.
READOUT_TYPE: Percent Effect

COMPOUND: CC1CN(CCc2ccccn2)CCN1c1ccc2nncn2n1 (stereo not given)
READOUT_TYPE: Percent Effect
READING: 129.7%
--
COMPOUND: COc1cccc2c1OCCCN(Cc1ncccc1C(=O)O)C2
READOUT_TYPE: Percent Effect
READING: 13.59%
--
COMPOUND: COc1cc2cc3c(nc2cc1OC)OCCN(Cc1ccco1)C3
READOUT_TYPE: Percent Effect
READING: 100%
--
COMPOUND: CCC(C)(CC(=O)OC)NC(=O)c1ccc2[nH]ccc2c1 (stereo not given)
READOUT_TYPE: Percent Effect
READING: -0.3166%
--
COMPOUND: O=C(c1cncs1)N1CCC(c2cnccn2)CC1
READOUT_TYPE: Percent Effect
READING: 100.4%
--
COMPOUND: CCn1cc(N)c(C(=O)NCc2cnn(C)c2)n1
READOUT_TYPE: Percent Effect
READING: -9.614%
--
COMPOUND: Cc1cncc(C2CCCN(C(=O)c3ccc(C)[nH]c3=O)C2)n1 (stereo not given)
READOUT_TYPE: Percent Effect
READING: 1.082%
--
COMPOUND: CCc1ccc2nc(C)cc(C(=O)NCc3csc(N(C)C)n3)c2c1
READOUT_TYPE: Percent Effect
READING: -26.8%
--
COMPOUND: Cc1cc(C(=O)NCC2SCCc3ccccc32)no1 (stereo not given)
READOUT_TYPE: Percent Effect
READING: 0.5755%
--
COMPOUND: Cc1c(Br)cccc1C(=O)NCc1cnn(C)c1
READOUT_TYPE: Percent Effect
READING: -14.4%
--
COMPOUND: O=C(NC1CC1)N1Cc2[nH]nc(COCC3CC3)c2C1
READOUT_TYPE: Percent Effect
READING: -7.793%
--
COMPOUND: Cc1noc(C)c1CCNc1nccc(CCC(F)(F)F)n1
READOUT_TYPE: Percent Effect
READING: 1.118%
--
COMPOUND: Cc1cncc(C2CCCN(C(=O)c3scnc3C)C2)n1 (stereo not given)
READOUT_TYPE: Percent Effect
READING: -6.162%
--
COMPOUND: Cc1cncc(C2CCCN(C(=O)c3cnco3)C2)n1 (stereo not given)
READOUT_TYPE: Percent Effect
READING: 133.2%
--
COMPOUND: CCc1nccc(CN2CCC(CNC(=O)c3occc3C)C2)n1 (stereo not given)
READOUT_TYPE: Percent Effect
READING: -2.673%
--
COMPOUND: O=C(CCc1nc(Cl)n[nH]1)N1C[C@@H](CN2CCCCC2)[C@@H](CO)C1
READOUT_TYPE: Percent Effect
READING: 12.3%
--
COMPOUND: Cc1noc(C2CCCN(C(=O)c3ccc(Br)o3)C2)n1 (stereo not given)
READOUT_TYPE: Percent Effect
READING: -1.818%
--
COMPOUND: Cc1cnc(CNc2c(F)cccc2-n2cccn2)o1
READOUT_TYPE: Percent Effect
READING: -16.45%
--
COMPOUND: Cn1cc(Cl)cc1C(=O)N1CCC2(CCCN(CC3CCC3)C2=O)C1 (stereo not given)
READOUT_TYPE: Percent Effect
READING: -14.89%
--
COMPOUND: Fc1cccc(N2CCCC3(C2)CN(c2ncccn2)CCO3)c1.O=C(O)C(F)(F)F.O=C(O)C(F)(F)F (stereo not given)
READOUT_TYPE: Percent Effect
READING: -1.466%
--
COMPOUND: CC(Cn1cccn1)NCc1csc(-c2ccccc2)n1 (stereo not given)
READOUT_TYPE: Percent Effect
READING: 5.94%
--
COMPOUND: CSC(CNS(N)(=O)=O)c1cccc(Cl)c1 (stereo not given)
READOUT_TYPE: Percent Effect
READING: -15.56%
--
COMPOUND: Cc1cncc(C2CCCN(C(=O)c3cn(C)nc3C)C2)n1 (stereo not given)
READOUT_TYPE: Percent Effect
READING: 117.2%
--
COMPOUND: O=C(c1ccc2c(c1)OCO2)N1CCN(c2cnccn2)CC1
READOUT_TYPE: Percent Effect
READING: -2.532%
--
COMPOUND: CN(C)C(C(=O)N1CCN(CCn2cccc2)CC1)c1cccc(F)c1 (stereo not given)
READOUT_TYPE: Percent Effect
READING: -3.926%
